Please provide measured pIC50 for the entries that follow.
- System: ACE
- assay comment: ACE inhibition (IC50) of synthesized peptides
- Format: biochemical
One number for each entry, as −log10 of the molar value.

Guide cases for pIC50, answers given:
{"substance": "KVLPVP [Lys-Val-Leu-Pro-Val-Pro]", "number": 5.30}
{"substance": "KVLPVPQ [Lys-Val-Leu-Pro-Val-Pro-Gln]", "number": 3.00}

// switching to the query substance
For record Leu-Pro-Val-Pro (LPVP; printed: Leu-Pro-Val-Pro) the listed pIC50 is 3.60
